Source of measurements: patent US8288379B2

# experimentalSystem: FRAP1 (mTOR) kinase (Homo sapiens, UniProt P42345)
# Sequence (P42345 1360-2549 limits assumed): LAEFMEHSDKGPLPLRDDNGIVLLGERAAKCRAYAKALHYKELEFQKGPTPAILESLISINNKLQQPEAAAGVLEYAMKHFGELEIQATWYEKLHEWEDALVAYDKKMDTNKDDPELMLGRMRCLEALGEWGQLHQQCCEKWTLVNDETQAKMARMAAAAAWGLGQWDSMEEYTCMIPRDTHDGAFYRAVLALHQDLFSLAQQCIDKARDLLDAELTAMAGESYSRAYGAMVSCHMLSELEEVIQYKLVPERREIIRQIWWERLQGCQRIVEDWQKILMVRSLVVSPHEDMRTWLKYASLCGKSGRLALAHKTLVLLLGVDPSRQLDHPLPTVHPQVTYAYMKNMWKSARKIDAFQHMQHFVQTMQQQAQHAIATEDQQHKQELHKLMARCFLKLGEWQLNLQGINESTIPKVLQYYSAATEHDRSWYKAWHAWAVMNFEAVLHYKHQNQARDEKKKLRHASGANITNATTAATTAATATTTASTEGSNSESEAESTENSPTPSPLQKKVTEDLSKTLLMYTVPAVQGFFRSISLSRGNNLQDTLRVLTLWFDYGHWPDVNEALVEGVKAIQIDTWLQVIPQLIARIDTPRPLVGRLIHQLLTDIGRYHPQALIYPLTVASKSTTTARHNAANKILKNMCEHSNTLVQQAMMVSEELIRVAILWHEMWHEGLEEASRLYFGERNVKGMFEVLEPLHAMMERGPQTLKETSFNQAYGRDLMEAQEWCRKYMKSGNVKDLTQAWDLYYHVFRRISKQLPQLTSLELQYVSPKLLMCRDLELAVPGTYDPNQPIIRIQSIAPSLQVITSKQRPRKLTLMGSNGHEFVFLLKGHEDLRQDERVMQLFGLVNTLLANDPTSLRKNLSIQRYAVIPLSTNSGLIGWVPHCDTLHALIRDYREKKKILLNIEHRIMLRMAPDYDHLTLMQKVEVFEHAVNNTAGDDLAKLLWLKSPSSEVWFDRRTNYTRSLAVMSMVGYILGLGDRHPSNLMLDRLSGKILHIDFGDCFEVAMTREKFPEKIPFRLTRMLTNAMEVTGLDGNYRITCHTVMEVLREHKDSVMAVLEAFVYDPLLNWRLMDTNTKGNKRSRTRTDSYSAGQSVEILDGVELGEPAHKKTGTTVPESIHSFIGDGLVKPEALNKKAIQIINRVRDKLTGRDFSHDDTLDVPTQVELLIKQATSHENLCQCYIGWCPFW
# assayProcedure: Inhibition of mTOR-induced p-4E-BP1 phosphorylation (TR-FRET mTOR Activity Kit; Invitrogen)
# testSettings: 400 nM GFP-4E-BP1 substrate, ~150 ng/mL mTOR, one hour at room temperature
endpointLabel: IC50 (µM)
Give a bare numeral; the unit µM is implied.

Lab note: measured IC50 of `CNc1ccc(-c2nn(C(C)C)c3c2CCCc2nc(NC(C)=O)sc2-3)cn1` was 0.024

Lab note: measured IC50 of `CCCn1nc(-c2ccc(N)nc2)c2c1-c1sc(NC(=O)N(C)C)nc1CCC2` was 0.116

Lab note: measured IC50 of `CNc1ccc(-c2nn(-c3ccccc3Cl)c3c2CCCc2nc(NC(C)=O)sc2-3)cn1` was 0.05

====

Reported log10 IC50 values for the following compounds.
# experimentalSystem: FRAP1 (mTOR) kinase (Homo sapiens, UniProt P42345)
# assayProcedure: Inhibition of mTOR-induced p-4E-BP1 phosphorylation (TR-FRET mTOR Activity Kit; Invitrogen)
# testSettings: 400 nM GFP-4E-BP1 substrate, ~150 ng/mL mTOR, one hour at room temperature
Heads up: the numbers are on a log10 scale; they represent IC50 in nM.

Here is how some compounds turned out for log10 IC50.
{"compound": "CNC(=O)c1nn(C(C)C)c2c1CCCc1nc(NC(C)=O)sc1-2", "experimentalSystem": "FRAP1 (mTOR) kinase (Homo sapiens, UniProt P42345)", "log10 IC50": 3.71}
{"compound": "CCNc1ccc(-c2nn(-c3ccccc3OC)c3c2CCCc2nc(NC(C)=O)sc2-3)cn1", "experimentalSystem": "FRAP1 (mTOR) kinase (Homo sapiens, UniProt P42345)", "log10 IC50": 2.13}
{"compound": "CNc1ccc(-c2nn(-c3ccncc3C)c3c2CCCc2nc(NC(C)=O)sc2-3)cn1", "experimentalSystem": "FRAP1 (mTOR) kinase (Homo sapiens, UniProt P42345)", "log10 IC50": 1.38}
{"compound": "CC(=O)Nc1nc2c(s1)-c1c(c(-c3ccc(N)nc3)nn1C(C)C)CCC2", "experimentalSystem": "FRAP1 (mTOR) kinase (Homo sapiens, UniProt P42345)", "log10 IC50": 1.08}
{"compound": "CNc1ccc(-c2nn(-c3cccnc3)c3c2CCCc2nc(NC(C)=O)sc2-3)cn1", "experimentalSystem": "FRAP1 (mTOR) kinase (Homo sapiens, UniProt P42345)", "log10 IC50": 1.70}

Lab note: measured log10 IC50 of CC(=O)Nc1nc2c(s1)-c1c(c(-c3ccc(N)nc3)nn1C1CCCOC1)CCC2 (centres unmarked) was 1.11

Lab note: measured log10 IC50 of `CC(=O)Nc1nc2c(s1)-c1c(c(-c3cncn3C)nn1-c1ccccc1C)CCC2` was 3.05

Lab note: measured log10 IC50 of `CNC(=O)Nc1nc2c(s1)-c1c(c(-c3ccc(NC)nc3)nn1-c1ccccc1C)CCC2` was 1.96

====

# experimentalSystem: FRAP1 (mTOR) kinase (Homo sapiens, UniProt P42345)
# assayProcedure: Inhibition of mTOR-induced p-4E-BP1 phosphorylation (TR-FRET mTOR Activity Kit; Invitrogen)
# testSettings: 400 nM GFP-4E-BP1 substrate, ~150 ng/mL mTOR, one hour at room temperature
endpointLabel: IC50 (nM)
Give a bare numeral; the unit nM is implied.

Here is how some compounds turned out for IC50.
{"compound": "CC(=O)Nc1nc2c(s1)-c1c(c(C(=O)NCCO)nn1C(C)C)CCC2 [Example E-04]", "IC50, nM": 4890}
{"compound": "CC(=O)Nc1nc2c(s1)-c1c(c(-c3ccc(N)nc3)nn1-c1cccnc1C)CCC2 [Example B-138]", "IC50, nM": 38}
{"compound": "CCNc1ccc(-c2nn(-c3ccccc3C)c3c2CCCc2nc(N)sc2-3)cn1 [Example C-03]", "IC50, nM": 3340}

Okay, next one:
Lab note: measured IC50 of CCNc1ccc(-c2nn(-c3ccccc3F)c3c2CCCc2nc(NC(C)=O)sc2-3)cn1 [Example B-76] was 31
